test system: IGR-1 (Melanoma); assay: combination Emax (second highest fraction inhibited in the dose matrix, 72 h); higher = more inhibition; extreme values may be limits of the assay
Answer not met if combination Emax is under 0.3, and met if it is 0.3 or more.

- compound: "Cc1c2c(nn1C)CSCc1cc(n(C)n1)CSc1cc(c3ccccc3c1)OCCCc1c(C(=O)O)n(C)c3c-2c(Cl)ccc13 [AZD5991] + C[C@@H](Nc1cc(F)cc(F)c1)c1cc(C(=O)N(C)C)cc2c(=O)cc(N3CCOCC3)oc12 [AZD8186] (first compound max 1 µM, 7x7, partner max 3 µM)"
  class_name: "not met"
- compound: "CCc1c2c(nc3ccc(O)cc13)-c1cc3c(c(=O)n1C2)COC(=O)[C@]3(O)CC [SN-38] + CN(C)CCCOc1ccc(-c2ccc3ncc4c(c3c2)n(C2CCOCC2)c(=O)n4C)cn1 [AZD0156] (first compound max 0.3 µM, 7x7, partner max 1 µM)"
  class_name: "met"
- compound: "CC1(C)CCC(CN2CCN(c3ccc(C(=O)NS(=O)(=O)c4ccc(NCC5CCOCC5)c([N+](=O)[O-])c4)c(Oc4cnc5[nH]ccc5c4)c3)CC2)=C(c2ccc(Cl)cc2)C1 [Venetoclax] + CCN(CCO)CCCOc1ccc2c(Nc3cc(CC(=O)Nc4cccc(F)c4)[nH]n3)ncnc2c1 [AZD2811] (first compound max 1 µM, 7x7, partner max 1 µM)"
  class_name: "met"
- compound: "CN(CCO)CC[C@H](CSc1ccccc1)Nc1ccc(S(=O)(=O)NC(=O)c2ccc(N3CCC([C@@H](O)c4ccccc4-c4ccc(Cl)cc4)CC3)cc2)cc1S(=O)(=O)C(F)(F)F [AZD4320] + C=CCn1c(=O)c2cnc(Nc3ccc(N4CCN(C)CC4)cc3)nc2n1-c1cccc(C(C)(C)O)n1 [AZD1775] (first compound max 1 µM, partner max 1 µM)"
  class_name: "met"
- compound: "Cc1c2c(nn1C)CSCc1cc(n(C)n1)CSc1cc(c3ccccc3c1)OCCCc1c(C(=O)O)n(C)c3c-2c(Cl)ccc13 [AZD5991] + C1CN(CCC1(C(=O)N[C@@H](CCO)C2=CC=C(C=C2)Cl)N)C3=NC=NC4=C3C=CN4 [Capivasertib] (first compound max 1 µM, 7x7, partner max 3 µM)"
  class_name: "not met"
- compound: "COc1cc2ncnc(Nc3ccc(F)c(Cl)c3)c2cc1OCCCN1CCOCC1 [Gefitinib] + CC(C)n1c(=O)n(C)c2cnc3cc(F)c(-c4ccc(OCCCN5CCCCC5)nc4)cc3c21 [AZD1390] (first compound max 10 µM, 7x7, partner max 0.3 µM)"
  class_name: "met"
- compound: "CCN(CCO)CCCOc1ccc2c(Nc3cc(CC(=O)Nc4cccc(F)c4)[nH]n3)ncnc2c1 [AZD2811] + C[C@@H]1COCCN1C2=NC(=NC(=C2)C3(CC3)[S@](=N)(=O)C)C4=C5C=CNC5=NC=C4 [AZD6738] (first compound max 1 µM, 7x7, partner max 10 µM)"
  class_name: "met"
- compound: "CC(=O)c1c(C)c2cnc(Nc3ccc(N4CCNCC4)cn3)nc2n(C2CCCC2)c1=O [Palbociclib] + CC1(C)CCC(CN2CCN(c3ccc(C(=O)NS(=O)(=O)c4ccc(NCC5CCOCC5)c([N+](=O)[O-])c4)c(Oc4cnc5[nH]ccc5c4)c3)CC2)=C(c2ccc(Cl)cc2)C1 [Venetoclax] (first compound max 10 µM, 7x7, partner max 1 µM)"
  class_name: "met"
- compound: "CC1(C)CCC(CN2CCN(c3ccc(C(=O)NS(=O)(=O)c4ccc(NCC5CCOCC5)c([N+](=O)[O-])c4)c(Oc4cnc5[nH]ccc5c4)c3)CC2)=C(c2ccc(Cl)cc2)C1 [Venetoclax] + COc1cc(Nc2ncc3c(n2)-c2ccc(Cl)cc2C(c2c(F)cccc2OC)=NC3)ccc1C(=O)O [Alisertib] (first compound max 1 µM, 7x7, partner max 10 µM)"
  class_name: "met"
- compound: "CC1(C)CCC(CN2CCN(c3ccc(C(=O)NS(=O)(=O)c4ccc(NCC5CCOCC5)c([N+](=O)[O-])c4)c(Oc4cnc5[nH]ccc5c4)c3)CC2)=C(c2ccc(Cl)cc2)C1 [Venetoclax] + C[C@@H]1COCCN1C2=NC(=NC(=C2)C3(CC3)[S@](=N)(=O)C)C4=C5C=CNC5=NC=C4 [AZD6738] (first compound max 1 µM, 7x7, partner max 10 µM)"
  class_name: "met"
- compound: "CCN(CCO)CCCOc1ccc2c(Nc3cc(CC(=O)Nc4cccc(F)c4)[nH]n3)ncnc2c1 [AZD2811] + O=C(c1cc(Cc2n[nH]c(=O)c3ccccc23)ccc1F)N1CCN(C(=O)C2CC2)CC1 [Olaparib] (first compound max 1 µM, 7x7, partner max 10 µM)"
  class_name: "not met"
- compound: "CN(CCO)CC[C@H](CSc1ccccc1)Nc1ccc(S(=O)(=O)NC(=O)c2ccc(N3CCC([C@@H](O)c4ccccc4-c4ccc(Cl)cc4)CC3)cc2)cc1S(=O)(=O)C(F)(F)F [AZD4320] + C[C@@H](Nc1cc(F)cc(F)c1)c1cc(C(=O)N(C)C)cc2c(=O)cc(N3CCOCC3)oc12 [AZD8186] (first compound max 1 µM, 7x7, partner max 3 µM)"
  class_name: "met"

###

Reported values of combination Emax for individual entries
test system: KM-H2 (Hodgkin's Lymphoma); assay: combination Emax (second highest fraction inhibited in the dose matrix, 72 h); higher = more inhibition; extreme values may be limits of the assay

- molecule: "Cc1cc2ncnn2cc1Nc1ncc2c(n1)n(C1CCOCC1)c(=O)n2C [AZD7648] + C=CCn1c(=O)c2cnc(Nc3ccc(N4CCN(C)CC4)cc3)nc2n1-c1cccc(C(C)(C)O)n1 [AZD1775] (first compound max 10 µM, partner max 1 µM)"
  combination Emax: 0.933
- molecule: "COc1nnc2ccc(N3CCC(c4ccc(OCCN5CCN(C)C(=O)[C@H]5C)cc4)CC3)nn12 [AZD5153] + Cn1cnc2c(F)c(Nc3ccc(Br)cc3Cl)c(C(=O)NOCCO)cc21 [Selumetinib] (first compound max 1 µM, 7x7, partner max 10 µM)"
  combination Emax: 0.299
- molecule: "Cc1c2c(nn1C)CSCc1cc(n(C)n1)CSc1cc(c3ccccc3c1)OCCCc1c(C(=O)O)n(C)c3c-2c(Cl)ccc13 [AZD5991] + C[C@@H](Nc1cc(F)cc(F)c1)c1cc(C(=O)N(C)C)cc2c(=O)cc(N3CCOCC3)oc12 [AZD8186] (first compound max 1 µM, 7x7, partner max 3 µM)"
  combination Emax: 0.11
- molecule: "COc1cc2c(cc1OCCCCCOc1cc3c(cc1OC)C(=O)N1C=C(C)C[C@H]1C=N3)N=C[C@@H]1CC(C)=CN1C2=O [SG3199] + O=C(c1cc(Cc2n[nH]c(=O)c3ccccc23)ccc1F)N1CCN(C(=O)C2CC2)CC1 [Olaparib] (first compound max 0.001 µM, 7x7, partner max 10 µM)"
  combination Emax: 0.264

###

Reported values of Bliss excess for individual entries
system: SUIT-2 (Pancreatic Carcinoma); assay: Bliss excess, mean over the matrix (fraction); higher = more synergy;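 note: after 72 h of two-drug dosing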
measure_name: Bliss excess

- molecule: "Cn1cnc2c(F)c(Nc3ccc(Br)cc3Cl)c(C(=O)NOCCO)cc21 [Selumetinib] + C[C@@H]1COCCN1C2=NC(=NC(=C2)C3(CC3)[S@](=N)(=O)C)C4=C5C=CNC5=NC=C4 [AZD6738] (first compound max 10 µM, 7x7, partner max 10 µM)"
  test_value: 0.0298
- molecule: "COc1cccc(OCCCN)c1-c1cc(Nc2cnc(C#N)cn2)n[nH]1 [Prexasertib] + Cc1cc2ncnn2cc1Nc1ncc2c(n1)n(C1CCOCC1)c(=O)n2C [AZD7648] (first compound max 1 µM, 7x7, partner max 10 µM)"
  test_value: -0.0063
- molecule: "NC1(C(=O)N[C@@H](CCO)c2ccc(Cl)cc2)CCN(c2ncnc3[nH]ccc23)CC1 [Capivasertib] + CC(=O)c1c(C)c2cnc(Nc3ccc(N4CCNCC4)cn3)nc2n(C2CCCC2)c1=O [Palbociclib] (first compound max 10 µM, 7x7, partner max 10 µM)"
  test_value: -0.0047
- molecule: "Cn1cnc2c(F)c(Nc3ccc(Br)cc3Cl)c(C(=O)NOCCO)cc21 [Selumetinib] + CCN(CCO)CCCOc1ccc2c(Nc3cc(CC(=O)Nc4cccc(F)c4)[nH]n3)ncnc2c1 [AZD2811] (first compound max 10 µM, 7x7, partner max 1 µM)"
  test_value: -0.0526

###

system: HPAC (Pancreatic Carcinoma); assay: combination Emax (second highest fraction inhibited in the dose matrix, 72 h); higher = more inhibition; extreme values may be limits of the assay
Reported values of combination Emax for individual entries
measure_name: combination Emax

- molecule: "C=CCn1c(=O)c2cnc(Nc3ccc(N4CCN(C)CC4)cc3)nc2n1-c1cccc(C(C)(C)O)n1 [AZD1775] + O=C(c1cc(Cc2n[nH]c(=O)c3ccccc23)ccc1F)N1CCN(C(=O)C2CC2)CC1 [Olaparib] (first compound max 1 µM, partner max 10 µM)"
  test_value: 0.649
- molecule: "C=CCn1c(=O)c2cnc(Nc3ccc(N4CCN(C)CC4)cc3)nc2n1-c1cccc(C(C)(C)O)n1 [AZD1775] + C1CN(CCC1(C(=O)N[C@@H](CCO)C2=CC=C(C=C2)Cl)N)C3=NC=NC4=C3C=CN4 [Capivasertib] (first compound max 3 µM, partner max 3 µM)"
  test_value: 0.636
- molecule: "C[C@@H](c1ccc2nccn2c1)n1nnc2ncc(-c3cnn(C)c3)nc21 [Savolitinib] + CN(CC[C@H](CSC1=CC=CC=C1)NC2=C(C=C(C=C2)S(=O)(=O)NC(=O)C3=CC=C(C=C3)N4CCC(CC4)[C@H](C5=CC=CC=C5C6=CC=C(C=C6)Cl)O)S(=O)(=O)C(F)(F)F)CCO [AZD4320] (first compound max 1 µM, 7x7, partner max 1 µM)"
  test_value: 0.343
